# Test system: IGROV1 ovarian
# Assay Protocol: NCI-60 one-dose screen, 48 h
# Settings: 10 µM
The panel holds about 83,000 compounds, 20% with a hit somewhere; the sample as a whole holds those more often. Active and inactive are the calls of the source. The calls were made as follows: active = growth percent below 10; inactive = the rest.
Would you mind answering with one of these outcomes? active, inactive

GET /call?item= `CC(=O)[C@H]1CC[C@]2(C)[C@@H]1CC[C@@H]1[C@@]3(C)CC(CCC#N)(CCC#N)C(=O)C(C)(C)[C@@H]3CC[C@]12C` returns the recorded outcome of this test.
inactive

GET /call?item= `CCN(CC)CCOc1cccc2c1C(=O)c1ccccc1C2=O` returns the recorded outcome of this test.
inactive

GET /call?item= `O=C(Nc1ccccc1)Nc1ncnc2c1ncn2-c1ccccc1` returns the recorded outcome of this test.
inactive

GET /call?item= `COc1cc(/C=C/c2cc(/C=C/c3ccc(O)c(OC)c3)[nH]c(=O)n2)ccc1O` returns the recorded outcome of this test.
inactive

GET /call?item= `C=C/C(C)=C/C[C@]1(C)[C@H](C)[C@@H](OC(=O)CCC)[C@H](O)[C@@]23C(=C[C@H](OC)C[C@@H]12)[C@@H](OC(=O)CCC)O[C@H]3OC(C)=O` returns the recorded outcome of this test.
active

GET /call?item= COc1cc(C2C(C#N)=C(N)Oc3cc(O)ccc32)cc(OC)c1OC (centres undefined) returns the recorded outcome of this test.
inactive

GET /call?item= `COc1ccc(C2=Cn3c(CCC(=O)c4nc5ccccc5[nH]4)nnc3SC2)cc1` returns the recorded outcome of this test.
inactive

GET /call?item= `O=C(Nc1cccc2c1CCCC2)c1cc2ccccc2cc1O` returns the recorded outcome of this test.
inactive

GET /call?item= CCCN1CN2C(=O)N3CN(CCC)CN4C(=S)N(C1)C2C34 (centres undefined) returns the recorded outcome of this test.
inactive

---

# System: SF-539 CNS
# Assay Protocol: NCI-60 one-dose screen, 48 h (100 = growth as untreated, 0 = no growth, -100 = all killed)
# Settings: 10 µM
Compounds without any hit were thinned out: in the full panel of roughly 83,000, 20% have a hit.
Experimental Endpoint: growth (%)
Respond with the bare value in %.

In one line, give reported growth of the entry `CC(C)C1=C(O)C2=C(C(=O)C1=O)[C@@]1(C)CCCC(C)(C)[C@@H]1CC2` .
90

In one line, give reported growth of the entry `CN(C)c1nc(N)c2nccnc2n1` .
105

In one line, give reported growth of the entry O=C(CCC(C(=O)c1ccccc1)c1ccccc1)c1ccccc1 (stereo unspecified) .
99.9

In one line, give reported growth of the entry `CCOC(=O)c1cocc1C(=O)O` .
107

In one line, give reported growth of the entry `O=C1c2ccccc2C(=O)N1CCCCNc1ccccc1` .
74.6

In one line, give reported growth of the entry `O=C(Nc1ccc(F)cc1)c1cc2ccccc2cc1O` .
84

In one line, give reported growth of the entry `Cc1c2cnccc2c(C)c2c1oc1ccccc12` .
96.6

In one line, give reported growth of the entry CCCCC(CC)CN=C(N)NC(N)=NCCCCCCN=C(N)NC(N)=NCC(CC)CCCC (stereo unspecified) .
-76.9

In one line, give reported growth of the entry `CCN(CC)CCCOc1cccc2c1C(=O)c1cccc(OCCCN(CC)CC)c1C2=O` .
40.2

In one line, give reported growth of the entry `CCC(CC)n1c(C)cc(=O)n1C(CC)CC` .
96.7

In one line, give reported growth of the entry `COc1ccc2c(c1)C(=O)/C(=C/c1ncc([N+](=O)[O-])n1C)O2` .
-29.4

---

# Tested on: SR leukemia
# Assay Protocol: NCI-60 one-dose screen, 48 h
# Settings: 10 µM
# Experimental: Growth inhibition of the SR human tumor cell line is measured as a screen for anti-cancer activity. Cells are grown in 96 well plates and exposed to the test compound for 48 hours. Compounds are tested at a single concentration, which is 10^-5 M for most compounds. The reported endpoint is percent growth (GI% or GIPRCNT), where numbers from 0 - 100% represent growth inhibition, and numbers from -100% - 0 represent cell death. For example, a value of 40 represents 60% growth inhibition. […]
This is part of a sample that, as a whole, favours compounds with a hit. Of some 83,000 tested, about 20% had one in any assay. Calls of active or inactive are those of the source. How the source made its calls: active means growth percent below 10; inactive means the rest.
Would you mind answering with one of these outcomes? active, inactive

GET /call?item= `O=C(CCNC(=O)c1nc(-c2ccccc2)n(-c2ccc(Cl)cc2)n1)NO` returns the recorded outcome of this test.
inactive

GET /call?item= `O=S(=O)(Oc1ccc(-c2ccc3sccc3c2)cc1)c1ccc(F)cc1` returns the recorded outcome of this test.
inactive

GET /call?item= `CCOS(=O)(=O)c1c(C(C)C)cc(C(C)C)cc1C(C)C` returns the recorded outcome of this test.
inactive

GET /call?item= C1CN(CC2CCC(CN3CCOCC3)O2)CCO1 (stereo unspecified) returns the recorded outcome of this test.
inactive

GET /call?item= `O=C(CSc1nnc(-c2ccc(Cl)cc2)o1)Nc1ccc(C(=O)/C=C/c2ccc(Cl)cc2)cc1` returns the recorded outcome of this test.
inactive

GET /call?item= `O=C1c2ccccc2C(=O)c2c1ccc(C(Br)Br)c2[N+](=O)[O-]` returns the recorded outcome of this test.
active

---

# Test system: HOP-92 NSCLC
# Assay Protocol: NCI-60 one-dose screen, 48 h (100 = growth as untreated, 0 = no growth, -100 = all killed)
# Settings: 10 µM
About 83,000 compounds went through this panel and 20% of them were active in at least one assay; those are over-represented in the sample as a whole.
Please provide measured growth for the entries that follow.
Respond with the bare value in %.

Please tell me the measured growth for `C=CCSC(CC)(CC)C(=O)NC` ; system: HOP-92 NSCLC.
106

Please tell me the measured growth for N#CC1=C(N)Oc2cc(N)ccc2C1c1cccnc1 (stereo unspecified) ; system: HOP-92 NSCLC.
111

Please tell me the measured growth for `CC(C)(C)OC(=O)N1CCc2c(sc3ncnc(N/N=C/c4ccccc4Br)c23)C1` ; system: HOP-92 NSCLC.
80.8

Please tell me the measured growth for `CNC(=O)c1cc(Oc2ccc3c(c2)sc2nc(-c4ccc(N)cc4)cn23)ccn1` ; system: HOP-92 NSCLC.
58.4

Please tell me the measured growth for `C=CCn1c(SCC(=O)Nc2ccc(C(=O)/C=C/c3ccc(Cl)cc3)cc2)nnc1-c1cc(-c2ccccc2)nc2ccccc12` ; system: HOP-92 NSCLC.
91.5

Please tell me the measured growth for COC(=O)C1(O)NC(=C(C#N)C#N)C(C#N)=C1C(=O)c1ccc(OC)c(OC)c1 (stereo unspecified) ; system: HOP-92 NSCLC.
90.3

Please tell me the measured growth for `O=C(CCCSc1nc(-c2ccc(Cl)cc2)cc(-c2ccc(Cl)cc2)n1)NO` ; system: HOP-92 NSCLC.
28

Please tell me the measured growth for `C[n+]1c2ccccc2nc2ccccc21` ; system: HOP-92 NSCLC.
-10.7

Please tell me the measured growth for `O=S(=O)(Oc1ccc(-c2ccc3sccc3c2)cc1)c1ccc(F)cc1` ; system: HOP-92 NSCLC.
105

Please tell me the measured growth for `O=C(CN(C1CCCCC1)C1CCCCC1)Nc1ccc(S(=O)(=O)c2ccc(NC(=O)CN(C3CCCCC3)C3CCCCC3)cc2)cc1` ; system: HOP-92 NSCLC.
-86.7

Please tell me the measured growth for `O=C(CCn1cnc2c(cc(-c3ccccc3)n2-c2ccccc2)c1=O)Nc1ccc(F)cc1` ; system: HOP-92 NSCLC.
34.2

---

Please provide measured growth for the entries that follow.
# System: OVCAR-5 ovarian
# Assay Protocol: NCI-60 one-dose screen, 48 h (100 = growth as untreated, 0 = no growth, -100 = all killed)
# Settings: 10 µM
The panel holds about 83,000 compounds, 20% with a hit somewhere; the sample as a whole holds those more often.
Respond with the bare value in %.

In one line, give reported growth of the entry `COc1ccc(/C(C#N)=C/c2cccc(OC)c2OC)cc1` .
97.7

In one line, give reported growth of the entry CC(=O)OC1CC2C(C)(C)CCC[C@]2(C)C2=C1C(O)=C(C(C)C)C(=O)C2=O (stereo not given in full) .
-39.3

In one line, give reported growth of the entry `O=C(CC(CC(=O)c1ccccc1)c1ccccc1O)c1ccccc1` .
96.9

In one line, give reported growth of the entry `O=C1c2c(c3c4ccccc4n(CCCCCCN4CCOCC4)c3c3[nH]c4ccccc4c23)C(=O)N1O` .
127

In one line, give reported growth of the entry COc1ccc(/C=C2\CCCC3C2=Nc2ccccc2NC3c2ccc(OC)cc2)cc1 (stereo not given) .
127

---

# Tested on: IGROV1 ovarian
# Assay Protocol: NCI-60 one-dose screen, 48 h
# Settings: 10 µM
# Method: Growth inhibition of the IGROV1 human tumor cell line is measured as a screen for anti-cancer activity. Cells are grown in 96 well plates and exposed to the test compound for 48 hours. Compounds are tested at a single concentration, which is 10^-5 M for most compounds. The reported endpoint is percent growth (GI% or GIPRCNT), where numbers from 0 - 100% represent growth inhibition, and numbers from -100% - 0 represent cell death. For example, a value of 40 represents 60% growth inhibition. […]
About 83,000 compounds went through this panel and 20% of them were active in at least one assay; those are over-represented in the sample as a whole. Active and inactive are the calls of the source. The calls were made as follows: active = growth percent below 10; inactive = the rest.
Would you mind answering with one of these outcomes? active, inactive

GET /call?item= `NS(=O)(=O)c1ccc(Br)cc1` returns the recorded outcome of this test.
inactive

GET /call?item= `CNC(=O)c1cc(Oc2ccc3c(c2)sc2nc(-c4ccc(NC(=O)Nc5ccc(Cl)c(C(F)(F)F)c5)cc4)cn23)ccn1` returns the recorded outcome of this test.
inactive

GET /call?item= COc1cc(C2CC(c3cc(Cl)c(C)cc3O)=NN2c2ccc(S(N)(=O)=O)cc2)cc(OC)c1OC (stereo not given) returns the recorded outcome of this test.
active

GET /call?item= `Nc1cc(Br)c(-c2nn3c(CCC(=O)c4nc5ccccc5[nH]4)nnc3s2)c(Br)c1` returns the recorded outcome of this test.
inactive

GET /call?item= `COCCn1cc(-c2nc(-c3cccnc3)cs2)c2cc(F)ccc21` returns the recorded outcome of this test.
inactive
